# key: entry, value: activity coefficient
- Test Summary: activity coefficient (dimensionless); of the first substance listed, at infinite dilution; xn = mol fraction of the nth substance listed
- Condition: 333.38 K; 101 kPa; Liquid; Chromatography; x1 = 0

# Molecule, activity coefficient
measured = [
    ("ClCc1ccccc1 [(chloromethyl)benzene] + CCCCCCCCCCCCCC(=O)O", 1.6),
    ("CCCCCC [hexane] + CCCCCCCCCC(=O)O", 1.7),
    ("C1CCCCC1 [cyclohexane] + CCCCCCCCCCCC(=O)O", 1.25),
    ("CC(C)O [propan-2-ol] + CCCCCCCCCCCCCC(=O)O", 1.3),
    ("CCCCCC [hexane] + CCCCCCCCCCCC(=O)O", 1.54),
    ("ClC=C(Cl)Cl [trichloroethene] + CCCCCCCCCCCCCC(=O)O", 0.838),
    ("CO [methanol] + CCCCCCCCCCCCCC(=O)O", 1.71),
    ("C1CCCCC1 [cyclohexane] + CCCCCCCCCC(=O)O", 1.39),
    ("CCOC(C)=O [ethyl acetate] + CCCCCCCCCCCCCC(=O)O", 1.19),
    ("CCCCCCC [heptane] + CCCCCCCCCCCCCC(=O)O", 1.43),
    ("CCO [ethanol] + CCCCCCCCCCCCCC(=O)O", 1.67),
]

---

- Test Summary: activity coefficient (dimensionless); of the first substance listed, at infinite dilution; xn = mol fraction of the nth substance listed
- Condition: 333.26 K; 101 kPa; Liquid; Chromatography; x1 = 0
Readout Type: activity coefficient

# Molecule, Assay Result
data = [
    ("ClC(Cl)Cl [trichloromethane] + CCCCCCCCCCCCCC(=O)O", 0.739),
    ("Clc1ccccc1 [chlorobenzene] + CCCCCCCCCC(=O)O", 1.16),
    ("C1CCCCC1 [cyclohexane] + CCCCCCCCCC(=O)O", 1.39),
    ("Cc1ccccc1 [toluene] + CCCCCCCCCC(=O)O", 1.12),
    ("ClC=C(Cl)Cl [trichloroethene] + CCCCCCCCCC(=O)O", 1),
    ("CCCCO [butan-1-ol] + CCCCCCCCCCCCCC(=O)O", 1.45),
    ("CCCCCC [hexane] + CCCCCCCCCCCC(=O)O", 1.53),
    ("CCCCCCC [heptane] + CCCCCCCCCC(=O)O", 1.83),
    ("CC(C)O [propan-2-ol] + CCCCCCCCCC(=O)O", 1.35),
    ("CCOC(C)=O [ethyl acetate] + CCCCCCCCCC(=O)O", 1.25),
    ("Cc1ccccc1 [toluene] + CCCCCCCCCCCC(=O)O", 1.07),
]

---

- Test Summary: activity coefficient (dimensionless); of the first substance listed, at infinite dilution; xn = mol fraction of the nth substance listed
- Condition: 338.27 K; 101 kPa; Liquid; Chromatography; x1 = 0
# key: entry, value: activity coefficient

# Molecule, activity coefficient
measured = [
    ("CC(C)CC(C)(C)C [2,2,4-trimethylpentane] + CCCCCCCCCCCCCC(=O)O", 1.53),
    ("CCCCCC [hexane] + CCCCCCCCCCCCCC(=O)O", 1.34),
    ("CCc1ccccc1 [ethylbenzene] + CCCCCCCCCCCCCC(=O)O", 1.06),
    ("Cc1ccccc1 [toluene] + CCCCCCCCCCCCCC(=O)O", 0.926),
]

---

- Test Summary: activity coefficient (dimensionless); of the first substance listed, at infinite dilution; xn = mol fraction of the nth substance listed
- Condition: 333.38 K; 101 kPa; Liquid; Chromatography; x1 = 0
# key: entry, value: activity coefficient
Readout Type: activity coefficient

# Compound, Assay Result
data = [
    ("CCO [ethanol] + CCCCCCCCCC(=O)O", 1.78),
    ("CC(C)O [propan-2-ol] + CCCCCCCCCC(=O)O", 1.36),
    ("C=CCCCC [hex-1-ene] + CCCCCCCCCC(=O)O", 1.49),
    ("CCCO [propan-1-ol] + CCCCCCCCCCCCCC(=O)O", 1.51),
    ("CO [methanol] + CCCCCCCCCC(=O)O", 1.84),
    ("CCC(C)O (stereo not drawn) [butan-2-ol] + CCCCCCCCCCCCCC(=O)O", 1.11),
    ("Clc1ccccc1 [chlorobenzene] + CCCCCCCCCC(=O)O", 1.18),
    ("ClC(Cl)Cl [trichloromethane] + CCCCCCCCCCCCCC(=O)O", 0.74),
    ("CC(C)=O [acetone] + CCCCCCCCCC(=O)O", 1.47),
    ("CCCO [propan-1-ol] + CCCCCCCCCCCC(=O)O", 1.6),
    ("CCc1ccccc1 [ethylbenzene] + CCCCCCCCCCCC(=O)O", 1.19),
    ("CCCCCCC [heptane] + CCCCCCCCCC(=O)O", 1.82),
    ("CC(C)=O [acetone] + CCCCCCCCCCCCCC(=O)O", 1.35),
    ("CCCCCCC [heptane] + CCCCCCCCCCCC(=O)O", 1.66),
    ("CCCCO [butan-1-ol] + CCCCCCCCCCCCCC(=O)O", 1.42),
    ("C=CCCCC [hex-1-ene] + CCCCCCCCCCCCCC(=O)O", 1.21),
    ("ClC=C(Cl)Cl [trichloroethene] + CCCCCCCCCCCC(=O)O", 0.951),
    ("ClC(Cl)Cl [trichloromethane] + CCCCCCCCCCCC(=O)O", 0.818),
    ("CC(C)CC(C)(C)C [2,2,4-trimethylpentane] + CCCCCCCCCCCC(=O)O", 1.72),
    ("ClC(Cl)Cl [trichloromethane] + CCCCCCCCCC(=O)O", 0.827),
    ("ClCCCl [1,2-dichloroethane] + CCCCCCCCCCCCCC(=O)O", 1.18),
    ("ClCCCl [1,2-dichloroethane] + CCCCCCCCCC(=O)O", 1.4),
    ("ClCCCl [1,2-dichloroethane] + CCCCCCCCCCCC(=O)O", 1.32),
]

---

- Test Summary: activity coefficient (dimensionless); of the first substance listed, at infinite dilution; xn = mol fraction of the nth substance listed
- Condition: 353.3 K; 101 kPa; Liquid; Chromatography; x1 = 0
Readout Type: activity coefficient

# Molecule, Assay Result
measured = [
    ("Clc1ccccc1 [chlorobenzene] + CCCCCCCCCCCCCC(=O)O", 0.961),
    ("CCCCO [butan-1-ol] + CCCCCCCCCC(=O)O", 1.32),
    ("CCc1ccccc1 [ethylbenzene] + CCCCCCCCCC(=O)O", 1.22),
    ("CCCCO [butan-1-ol] + CCCCCCCCCCCCCC(=O)O", 1.32),
    ("C1CCCCC1 [cyclohexane] + CCCCCCCCCCCC(=O)O", 1.2),
    ("COc1ccccc1 [anisole] + CCCCCCCCCCCCCC(=O)O", 1.21),
    ("CC(C)=O [acetone] + CCCCCCCCCCCC(=O)O", 1.36),
    ("COc1ccccc1 [anisole] + CCCCCCCCCC(=O)O", 1.45),
    ("CC(C)O [propan-2-ol] + CCCCCCCCCCCCCC(=O)O", 1.19),
    ("CCO [ethanol] + CCCCCCCCCC(=O)O", 1.48),
    ("CC(C)O [propan-2-ol] + CCCCCCCCCC(=O)O", 1.15),
]

---

- Test Summary: activity coefficient (dimensionless); of the first substance listed, at infinite dilution; xn = mol fraction of the nth substance listed
- Condition: 340.19 K; 101 kPa; Liquid; Chromatography; x1 = 0

# Compound, activity coefficient
measured = [
    ("CCCCCCC [heptane] + CCCCCCCCCCCCCCCC(=O)O", 1.4),
    ("ClC(Cl)Cl [trichloromethane] + CCCCCCCCCCCCCCCC(=O)O", 0.748),
    ("ClC=C(Cl)Cl [trichloroethene] + CCCCCCCCCCCCCCCC(=O)O", 0.831),
    ("CCO [ethanol] + CCCCCCCCCCCCCCCC(=O)O", 1.93),
    ("Clc1ccccc1 [chlorobenzene] + CCCCCCCCCCCCCCCC(=O)O", 0.974),
    ("CC(C)O [propan-2-ol] + CCCCCCCCCCCCCCCC(=O)O", 1.47),
    ("CCc1ccccc1 [ethylbenzene] + CCCCCCCCCCCCCCCC(=O)O", 1.04),
    ("CC(C)=O [acetone] + CCCCCCCCCCCCCCCC(=O)O", 1.49),
]

---

- Test Summary: activity coefficient (dimensionless); of the first substance listed, at infinite dilution; xn = mol fraction of the nth substance listed
- Condition: 333.26 K; 101 kPa; Liquid; Chromatography; x1 = 0
Could you label it fulfilled if measured activity coefficient is 1 or higher, and not fulfilled otherwise?

# Molecule, Discrete Label
measured = [
    ("COc1ccccc1 [anisole] + CCCCCCCCCCCCCC(=O)O", "fulfilled"),
    ("ClC(Cl)Cl [trichloromethane] + CCCCCCCCCC(=O)O", "not fulfilled"),
    ("CCCCO [butan-1-ol] + CCCCCCCCCC(=O)O", "fulfilled"),
    ("CC(C)CC(C)(C)C [2,2,4-trimethylpentane] + CCCCCCCCCCCC(=O)O", "fulfilled"),
]

Where do these numbers come from? They come from the NIST ThermoML archive (doi:10.1016/j.jct.2012.06.009).
